Tested on: 186277-243-T-J2-PDC complex spheroid growth
assay.notes: Anticancer human tumor 186277-243-T-J2-PDC patient-derived colon adenocarcinoma cell line growth inhibition [AhR]
condition.context: second compound 1 µM; first compound 0.03 µM; stronger effect = lower value
quantity.measured: viability, T/C (%)
Report the value in % with no unit label.

O=C(C=Cn1cnc(-c2cc(C(F)(F)F)cc(C(F)(F)F)c2)n1)NNc1cnccn1 + Cc1ccccc1N=Nc1ccc(NC(=O)c2ccnn2C)c(C)c1; 106
CC(C)CC(NC(=O)C(Cc1ccccc1)NC(=O)c1cnccn1)B(O)O (stereo not drawn) + Cc1cncc(-c2nc(NCCc3c[nH]c4ccccc34)c3ncn(C(C)C)c3n2)c1; 0.51

Would you kindly look at the next entry?
Can you look up viability, T/C on 186277-243-T-J2-PDC complex spheroid growth for CCN(c1cc(-c2ccc(CN3CCOCC3)cc2)cc(C(=O)NCc2c(C)cc(C)[nH]c2=O)c1C)C1CCOCC1 + Cc1cncc(-c2nc(NCCc3c[nH]c4ccccc34)c3ncn(C(C)C)c3n2)c1 ?
115

----------
In this section, each of the compounds is paired with its reported viability, T/C.
Test system: 186277-243-T-J2-PDC complex spheroid growth
assay.notes: Anticancer human tumor 186277-243-T-J2-PDC cell line growth inhibition [AhR];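 also: luminescent signal used as a stand-in for viable cell amount; spheroids exposed to compounds for seven days before the viability read; 100% = DMSO vehicle control wells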
condition.context: second compound 0.316 µM; first compound 0.316 µM; stronger effect = lower value
Write the value in % as a bare number.

viability, T/C lookup needed for Nc1ccccc1NC(=O)c1ccc(CNC(=O)OCc2cccnc2)cc1 + Cc1ccccc1N=Nc1ccc(NC(=O)c2ccnn2C)c(C)c1 , thanks.
96.7

Lookup Nc1ccn(C2OC(CO)C(O)C2(F)F)c(=O)n1 (configuration not stated) + Cc1ccccc1N=Nc1ccc(NC(=O)c2ccnn2C)c(C)c1
16.5

Proceed to CC1(C)CCC(CN2CCN(c3ccc(C(=O)NS(=O)(=O)c4ccc(NCC5CCOCC5)c([N+](=O)[O-])c4)c(Oc4cnc5[nH]ccc5c4)c3)CC2)=C(c2ccc(Cl)cc2)C1 + Cc1ccccc1N=Nc1ccc(NC(=O)c2ccnn2C)c(C)c1
96.4

Record: CC1COCCN1c1cc(C2(S(C)(=N)=O)CC2)nc(-c2ccnc3[nH]ccc23)n1 (configuration not stated) + CC(CO)NC(=O)c1cc(-c2ccc(Cl)cc2)nn(-c2cnn(C)c2)c1=O
87.3

// next record COc1cc(C2c3cc4c(cc3C(OC3OC5COC(C)OC5C(O)C3O)C3COC(=O)C23)OCO4)cc(OC)c1O (configuration not stated) + Cc1ccccc1N=Nc1ccc(NC(=O)c2ccnn2C)c(C)c1
145

// next record O=C(C=Cc1cccc(S(=O)(=O)Nc2ccccc2)c1)NO + CC(CO)NC(=O)c1cc(-c2ccc(Cl)cc2)nn(-c2cnn(C)c2)c1=O
54.3

And what about the compound Nc1ncn(C2CC(O)C(CO)O2)c(=O)n1 (configuration not stated) + Cc1cncc(-c2nc(NCCc3c[nH]c4ccccc34)c3ncn(C(C)C)c3n2)c1 ?
137

Same question for O=C(c1cc(Cc2n[nH]c(=O)c3ccccc23)ccc1F)N1CCN(C(=O)C2CC2)CC1 + Cc1cncc(-c2nc(NCCc3c[nH]c4ccccc34)c3ncn(C(C)C)c3n2)c1 please.
96.5

Cool, now CC1COCCN1c1cc(-c2ccnn2C)c2ccnc(-c3ccn[nH]3)c2n1 (configuration not stated) + Cc1cncc(-c2nc(NCCc3c[nH]c4ccccc34)c3ncn(C(C)C)c3n2)c1
8.4

Then this compound: Nc1ncn(C2CC(O)C(CO)O2)c(=O)n1 (configuration not stated) + Cc1ccccc1N=Nc1ccc(NC(=O)c2ccnn2C)c(C)c1
120

Entry to check: COc1cccc2c1C(=O)c1c(O)c3c(c(O)c1C2=O)CC(O)(C(=O)CO)CC3OC1CC(N)C(O)C(C)O1 (configuration not stated) + Cc1ccccc1N=Nc1ccc(NC(=O)c2ccnn2C)c(C)c1
70

Also, COc1cc(Nc2ncc3c(n2)-c2ccc(Cl)cc2C(c2c(F)cccc2OC)=NC3)ccc1C(=O)O + Cc1cncc(-c2nc(NCCc3c[nH]c4ccccc34)c3ncn(C(C)C)c3n2)c1 please.
72.3
